In this section we review reported (H) G/D (fold bias) values for a set of molecules.
Tested on: hLTBP1-/hLTBP3-proTGFβ1 vs hGARP-/hLRRC33-proTGFβ1 complexes
test.summary: Solution equilibrium titration: relative affinity (bias) LTBP complexes vs cell-associated complexes
Format: binding, human
condition.details: MSD-SET, ratio of average KD cell-associated / matrix-associated

molecule: Ab31: monoclonal antibody; VH SEQ ID NO: 139, VL SEQ ID NO: 15 (antibody, V domains shown) VH: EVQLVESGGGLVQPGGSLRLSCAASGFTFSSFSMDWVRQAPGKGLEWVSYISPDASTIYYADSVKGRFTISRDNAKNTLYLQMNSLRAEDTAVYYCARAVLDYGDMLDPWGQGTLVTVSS VL: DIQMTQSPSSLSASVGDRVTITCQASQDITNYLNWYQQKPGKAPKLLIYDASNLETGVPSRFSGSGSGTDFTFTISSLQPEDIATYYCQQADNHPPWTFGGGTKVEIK
output.unit: fold
(H) G/D (fold bias): 3.41

molecule: Ab26: monoclonal antibody; VH SEQ ID NO: 134, VL SEQ ID NO: 15 (antibody, V domains shown) VH: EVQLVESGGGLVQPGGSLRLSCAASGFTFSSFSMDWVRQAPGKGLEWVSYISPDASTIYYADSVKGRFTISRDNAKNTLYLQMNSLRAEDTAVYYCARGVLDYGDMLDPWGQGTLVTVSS VL: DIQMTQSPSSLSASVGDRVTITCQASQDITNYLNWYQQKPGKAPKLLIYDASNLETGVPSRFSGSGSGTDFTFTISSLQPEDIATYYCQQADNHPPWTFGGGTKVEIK
output.unit: fold
(H) G/D (fold bias): 2.77
